# Test system: SW-620
# TEST DESCRIPTION: NCI tumour cell line growth inhibition, 48 h
Activity calls are given as the source filed them. Cut-off read from the data, not from the text of the source: active = GI50 up to about 1.1 µM and inactive = higher.
Exercise: state measured GI50 for each of the compounds provided.

Input line: # get_value(readout= GI50, system= SW-620) for CN(C)C(=O)Oc1ccc[n+](C)c1 [PYRIDOSTIGMINE BROMIDE]
Output line: > 100 µM (inactive)

Input line: # get_value(readout= GI50, system= SW-620) for CC(C)(C)[Si](C)(C)O/N=C\c1ccc(O[Si](C)(C)C(C)(C)C)cc1
Output line: > 100 µM (inactive)

Input line: # get_value(readout= GI50, system= SW-620) for COc1nc2c(c(O)c(C)c(=O)n2OC2OCC(OC(C)=O)C(OC(C)=O)C2OC(C)=O)c(=O)n1C (stereo not given)
Output line: > 100 µM (inactive)

Input line: # get_value(readout= GI50, system= SW-620) for COc1cc(C2S/C(=C/c3ccccc3)C(=O)N2c2cccc(Cl)c2)cc(OC)c1OC (stereo not given)
Output line: 46 µM (inactive)

Input line: # get_value(readout= GI50, system= SW-620) for O=C1CC(c2ccccc2)NCCCCN2CC(CN1)C(C(O)c1ccccc1)C2=O (stereo not given)
Output line: > 100 µM (inactive)
